Target: angiotensin II mesenteric artery receptor
Assay: In vitro angiotensin II mesenteric artery receptor binding assay
Settings: test 1); 125I-Ang II 0.2 nM, rat mesenteric artery membrane fraction, 22° C., 90 min
Protocol: 1) In vitro angiotensin II mesenteric artery receptor binding assay According to the method (1) by Gunther et at., a membrane fraction was prepared from mesenteric artery of a male rat, 50 μg protein equivalent thereof and 0.2 nM ^125 I-Ang II as well as various concentrations of test compounds were incubated at 22° C. for 90 min. in 200 μl reaction volume of incubation buffer (50 mM Tris-HCl, 120 mM NaCl, 5 mM MgCl2, 0.25% bovine serum albumin, pH7.2). […]
metric-name: pIC50
Please report pIC50 as the negative decimal logarithm of the molar concentration, giving only the number.

Q. Quick one: pIC50 of CCCCc1nc2c(n1Cc1ccc(-c3ccccc3C(=O)OC(C)(C)C)cc1)C(=O)c1ccccc1C2=O ?
A. 7.30

Then this compound:
Q. Please look up its pIC50: CCCCc1nc2c(n1Cc1ccc(-c3ccccc3C(=O)O)cc1)C(=O)c1ccccc1C2=O
A. 6.21
